Tested on: CCRIS mutagenicity, Ames/micronucleus/aberration tests
Assay: CCRIS mutagenicity studies
Conditions: Test System: AMES SALMONELLA TYPHIMURIUM; Strain/Indicator: TA1538; Metabolic Activation: RAT, LIVER, S-9, AROCLOR 1254; Method: STANDARD PLATE
Active and inactive are the calls of the source. How the calls were made is not given here.
Allowed answers: active, inactive

Worked set:
>>> df
                                   compound  assigned_class
0  O=[N+]([O-])C1=Cc2cccc3c2c1cc1ccc2ccccc2c13          active
1                          c1ccc2c(c1)CCCC2        inactive
2  CCN(CC)c1ccc(N=Nc2ccc(N=Nc3c(S(=O)(=O)O)cc4ccc(N)cc4c3O)c(OCCO)c2)cc1          active

### Prompt GET /call?item= "Cc1cc(-c2ccccc2C)ccc1N" returns the recorded outcome of this test.
### Response active

### Prompt Outcome logged for "c1cscn1" in this assay:
### Response inactive

### Prompt Fill in: this test's call for "CCCCCCCCCCCCCCCC(=O)OC/C=C(C)/C=C/C=C(C)/C=C/C1=C(C)CCCC1(C)C" is ___
### Response inactive

### Prompt Outcome logged for "CC(C)N=C=NC(C)C" in this assay:
### Response inactive

### Prompt GET /call?item= "CCCCCCCCC=O" returns the recorded outcome of this test.
### Response inactive

### Prompt For "[Cl][Fe]([Cl])[Cl]" , which call appears in the assay record?
### Response inactive

### Prompt Which outcome was assigned to "O=C1c2ccccc2C(=O)c2c(O)ccc(O)c21" in this test?
### Response inactive

### Prompt # lookup: test call for "C#C[C@]1(O)CC[C@H]2[C@@H]3CCC4=CC(=O)CC[C@@H]4[C@H]3CC[C@@]21CC"
### Response inactive

### Prompt Please indicate how the test categorized "Nc1cc([N+](=O)[O-])c(N)cc1F" .
### Response active

### Prompt How did this test come out for "CN(C)c1ccc([C@H]2C[C@]3(C)[C@@H](CC[C@]3(O)CCCO)[C@@H]3CCC4=CC(=O)CCC4=C32)cc1" ?
### Response inactive

### Prompt What call does the record list for "N=c1ccc2c(-c3ccccc3C(=O)O)c3ccc(N)cc3oc-2c1" ?
### Response inactive

### Prompt Assay result, entry "COc1cc(N=Nc2ccc(N)cc2)c(C)cc1N=Nc1c(S(=O)(=O)O)cc2ccc(N)cc2c1O" — outcome?
### Response active

### Prompt // outcome(item) with item = "CCCCCCCCCCCCCCCCCCO"
### Response inactive

### Prompt Just curious, what result did "Nc1cccc2c1C(=O)c1cccc(N)c1C2=O" get here?
### Response active

### Prompt Can you look up the reported call for "CN(C)c1ccc(Cc2ccc(N(C)C)cc2)cc1" for me?
### Response inactive

### Prompt Hey, what did the test say about "O=C(O)[C@H](O)[C@@H](O)C(=O)O" ?
### Response inactive

### Prompt Look up the recorded call for "O=c1[nH]c(=O)n([C@H]2C[C@H](O)[C@@H](CO)O2)cc1CCCl" in this test.
### Response inactive

### Prompt Hey, what did the test say about "O=C(O)CCc1ccccc1" ?
### Response inactive

### Prompt # fetch the recorded call for CC(Cc1ccc(O)c(O)c1)C(C)Cc1ccc(O)c(O)c1 (stereo unspecified) here
### Response inactive

### Prompt What is the recorded call for this compound in the test? "C=CC#N"
### Response inactive

### Prompt Hi, sorry to bother you, what did the test record for "C=C(C)C(=O)OCC(C)(C)COC(=O)C(=C)C" ?
### Response inactive

### Prompt Recorded test outcome, item "C[N+]1(C)CCOCC1"
### Response inactive

### Prompt In this assay, the call recorded for C[C@@H]1Cc2c(Cl)cc(C(=O)NC(Cc3ccccc3)C(=O)O)c(O)c2C(=O)O1 (stereo partly specified) was what?
### Response inactive

* * *

Tested on: CCRIS mutagenicity, Ames/micronucleus/aberration tests
Experiment: CCRIS mutagenicity studies
Details: Test System: AMES SALMONELLA TYPHIMURIUM; Strain/Indicator: TA97; Metabolic Activation: RAT, LIVER, S-9, AROCLOR 1254; Method: STANDARD PLATE
From the text: The CCRIS database contains chemical records with carcinogenicity, mutagenicity, tumor promotion, and tumor inhibition test results. It was developed by the National Cancer Institute (NCI). Data are derived from studies cited in primary journals, current awareness tools, NCI reports, and other sources. Test results have been reviewed by experts in carcinogenesis and mutagenesis. CCRIS provides historical information from the years 1985 - 2011. It is no longer updated. […]
The source made the active and inactive calls. The rule behind the calls is not given here.
Pick one: active, inactive

                            compound  assigned_class
0  Cc1c2c3ccccc3nc-2n(C)c2c(C)cccc12          active
1    COc1ccc(CN(CCN(C)C)c2ccccn2)cc1        inactive
2                      ClC(Cl)(Cl)Br          active
3                 Cn1cnc2c(NO)ncnc21        inactive

### Prompt In this assay, the call recorded for CCC1(c2ccccc2)C(=O)N=C(O)NC1=O (configuration not stated) was what?
### Response inactive

### Prompt Recorded test outcome, item ClCC1CO1 (configuration not stated)
### Response inactive

### Prompt Test call, this compound: CCC(CCCC(=O)O)COC(=O)c1ccccc1C(=O)O (configuration not stated)
### Response inactive

### Prompt For "COC1=CC(=O)c2c(nc(C)c3c2[nH]c2ccccc23)C1=O" , which call appears in the assay record?
### Response active

### Prompt What was the test verdict on "Cl/C=C/Cl" ?
### Response active

* * *

System: CCRIS mutagenicity, Ames/micronucleus/aberration tests
Test: CCRIS mutagenicity studies
Conditions: Test System: AMES SALMONELLA TYPHIMURIUM; Strain/Indicator: TA100; Metabolic Activation: NONE; Method: STANDARD PLATE
Active and inactive are the calls of the source. The rule behind the calls is not given here.
Write down the outcome that applies. Available outcomes: active, inactive

Please review the entries below; each comes with its answer.
In [3]: df
Out[3]:
                                   molecule  assigned_class
0  O=C(c1ccccc1)C1OC1c1ccc(Oc2ccccc2)cc1 (centres undefined)        inactive
1        O=C1c2ccc3ccccc3c2-c2c1ccc1ccccc21        inactive
2  CCCCOc1ccc2nc3cc(Cl)ccc3c(NCCCNCCCl)c2n1        inactive
3  O=[N+]([O-])c1c2c(cc3ccccc13)[C@@H](O)[C@H](O)C=C2        inactive
4  COC1=CC(=O)c2c(nc(C)c3c2[nH]c2ccccc23)C1=O          active

### Prompt In this assay, the call recorded for "CC(=O)Nc1ccc(Cc2ccc(N)cc2)cc1" was what?
### Response inactive

### Prompt So what was the verdict on "O=c1c2c(c3ccc4[nH]cccc4c3c1O)O2" in this test?
### Response inactive

### Prompt Answer briefly: the call reported for "CCCCCCCC/C=C\CCCCCCCC(=O)O" in this assay.
### Response inactive

### Prompt Any idea what this test logged for "O=[N+]([O-])c1ccc2c(c1)Oc1cc(Cl)c(Cl)cc1O2" ?
### Response active

### Prompt I would be grateful if you could indicate the recorded call for "CCc1cccc(CC)c1N" .
### Response inactive

### Prompt Each molecule tested received a call. Report the one for "Cc1ccc2nc(-c3ccc(N)cc3)sc2c1" .
### Response inactive

* * *

Test system: CCRIS mutagenicity, Ames/micronucleus/aberration tests
Assay: CCRIS mutagenicity studies
Conditions: End Point: In vitro chromosomal aberrations; Test System: Human lymphocytes; Metabolic Activation: None
Calls of active or inactive are those of the source. No rule for the calls is given here.
# output must be one of 1.0 = active, 0.0 = inactive

Completed entries (count: 3):
>>> print(df.to_string())
                                   molecule  assigned_class
0  O=S1OCC2C(CO1)C1(Cl)C(Cl)=C(Cl)C2(Cl)C1(Cl)Cl (centres undefined)             1.0
1              CCNc1nc(Cl)nc(NC(C)(C)C#N)n1             0.0
2          CCOP(=S)(OCC)Oc1nc(Cl)c(Cl)cc1Cl             1.0

### Prompt # lookup: test call for OC(c1ccc(Cl)cc1)(c1cncnc1)c1ccccc1Cl (centres undefined)
### Response 0.0

* * *

Tested on: CCRIS mutagenicity, Ames/micronucleus/aberration tests
Assay: CCRIS mutagenicity studies
Settings: Test System: AMES SALMONELLA TYPHIMURIUM; Strain/Indicator: TA100; Metabolic Activation: S-9
Active and inactive are the calls of the source. The rule behind the calls is not given here.
Your response should consist of one outcome taken from yes (1) for active, no (0) for inactive

>>> print(df.to_string())
                               compound  assigned_class
0                     CCOP(=S)(OCC)SCCl          no (0)
1  O=C1CCCc2cc([N+](=O)[O-])c3ccccc3c21         yes (1)

### Prompt Name the outcome recorded for CCOC(=O)Nc1cccc2c1CN(C)CC2c1ccc(Cl)cc1 (configuration not stated) in the assay.
### Response no (0)

### Prompt What did this assay record as the result for "Nc1cc(-c2ccncc2)c[nH]c1=O" ?
### Response no (0)

### Prompt Any idea what this test logged for "N#CCc1cn(N=O)c2ccccc12" ?
### Response yes (1)

### Prompt Could you kindly confirm the outcome this assay logged for "O=C1CCCc2c1ccc1c([N+](=O)[O-])c3ccccc3cc21" ?
### Response no (0)

### Prompt Hey, what did the test say about "CO[C@@]1(NC(=O)CSC[C@@H](N)C(=O)O)C(=O)N2C(C(=O)O)=C(CSc3nnnn3C)CS[C@@H]21" ?
### Response no (0)
